This collection of values is drawn from a melting point compilation (Tetko et al.; mined from patent text by program, amines drawn as free bases though some values may be those of a salt).

compounds and their reported melting point
measured_attribute: melting point

>>> reading("CC(C)c1cn(C)cc(-c2cccc(C(F)(F)F)c2)c1=O")
"98.5 to 99.5 °C"
>>> reading("COc1cc(Cl)cc2c1OC(C)(COS(=O)(=O)c1ccc(C)cc1)C2 (stereo unspecified)")
"113 to 115 °C"
>>> reading("COC(=O)c1ccc2cc(C(=O)c3ccc4c(c3)C3(C)C5(C)CCC(C5)C3(C)O4)ccc2c1 (stereo unspecified)")
"146 °C"
>>> reading("Cc1cc(Br)ccc1C(CO)NC(=O)c1c(Cl)cncc1Cl (stereo unspecified)")
"192 to 194 °C"
>>> reading("COc1cc(Cc2cnc(NC=O)nc2N)cc(OC)c1OC")
"240 to 242 °C"
>>> reading("CCOC(=O)c1ccc(OCC(=O)c2ccc3c(c2)C(C)(C)CCC3(C)C)cc1")
"105 to 107 °C"
>>> reading("CCCCCCCCOC(=O)Oc1ccc(-c2ccc(C#N)cc2)cc1")
"51.6 °C"
>>> reading("CCN[C@H]1C[C@H](CCCOCCOC)S(=O)(=O)c2sc(S(N)(=O)=O)cc21 (relative stereo)")
"177 to 179 °C"
>>> reading("COCCc1nc2c(N)nc3ccccc3c2n1CCCNC(=S)NC1CCCCC1")
"199 to 200 °C"
>>> reading("CCN(CC)c1ccc(S(=O)(=O)N2CCCCC2=O)cc1")
"118 to 120 °C"
>>> reading("Cn1c(Cl)nc2cc(F)ccc21")
"138 to 141 °C"
>>> reading("COc1ccc(-n2nnnc2C(F)(F)F)cc1C=O")
"117 °C"
>>> reading("Cc1ccc2c(c1)C(=O)N(C)Cc1c(C#N)ncn1-2")
"252 °C"
>>> reading("CCc1ccc(-c2onc3ccccc23)cc1")
"42 to 42.5 °C"
>>> reading("CC(=O)NCC1CN(c2ccc(S(C)=O)c(F)c2)C(=O)O1 (stereo unspecified)")
"143 to 145 °C"
>>> reading("CC(C)(C)c1ccc(-c2cc(=O)cc(N3CCOCC3)s2)cc1")
"172 to 173 °C"
>>> reading("Cc1ccc(NC(=O)c2cccc(N(C)C)c2)cc1NC(=O)c1ccccc1O")
"136 to 139 °C"
>>> reading("CCOC(=O)c1ccc(C2=NOCCS2)cc1")
"69 to 70 °C"
>>> reading("CC(=O)Nc1ccc(CC(=O)N[C@H]2C[C@H](C(=O)O)Nc3cc(Cl)cc(Cl)c32)cc1 (relative stereo)")
"279 to 281 °C"
>>> reading("CCOC(=O)c1c(Cn2cncn2)nc2sc3cnccc3c2c1-c1ccc(OC)c(OC)c1")
"172 to 174 °C"
>>> reading("CN(C)C(=O)COc1cc(Cl)ccc1C(=O)O")
"141 to 142 °C"
